As shown below, each of these binders has a reported Top MFI value.
Biological target: T1, cynomolgus monkey NKp46 (full length, on cells) (cynomolgus monkey, UniProt Q95JB9 22-306)
T1 construct: also called cynomolgus monkey NKp46-CHOK1; cynomolgus NKp46-CHOK1
T1 sequence (Q95JB9 22-306): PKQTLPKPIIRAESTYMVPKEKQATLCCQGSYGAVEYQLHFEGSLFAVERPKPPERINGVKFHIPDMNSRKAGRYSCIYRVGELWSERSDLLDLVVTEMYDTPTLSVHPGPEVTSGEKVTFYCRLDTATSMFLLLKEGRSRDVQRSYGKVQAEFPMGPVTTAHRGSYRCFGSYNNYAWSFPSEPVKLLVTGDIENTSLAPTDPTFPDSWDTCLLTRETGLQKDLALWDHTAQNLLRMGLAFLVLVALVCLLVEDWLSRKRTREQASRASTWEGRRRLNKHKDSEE
Assay: flow cytometry on cynomolgus monkey NKp46-CHOK1 cells
Assay metric: Top MFI

>  <Binder>
H1-PA45 humanized antibody (antibody, human IgG1, V domains shown, also called hPA45; not shown: constant region of human IgG1) VH: EVQLVESGGGLVQPGGSLRLSCAASGRTFSRLPMAWVRQAPGKGLEWVSAISWSGGSTYYADSMKGRFTISRDNSKNTLYLQMNSLRAEDTAVYYCAAVGDSAPYSATIVYTDARAYAYWGQGTLVTVSS

>  <Measurement>
3120

$$$$
>  <Binder>
H3-PA45 humanized antibody (antibody, V domains shown, not shown: constant region of human IgG1) VH: EVQLVESGGGLVQPGGSLRLSCAASGRTFSRLPMAWFRQAPGKGREFVAAISWSGGSTYYADSMKGRFTISRDNSKNTAYLQMNSLRAEDTAVYYCAAVGDSAPYSATIVYTDARAYAYWGQGTLVTVSS

>  <Measurement>
3330

$$$$
>  <Binder>
H2-PA27 humanized antibody (antibody, human IgG1, V domains shown, not shown: constant region of human IgG1) VH: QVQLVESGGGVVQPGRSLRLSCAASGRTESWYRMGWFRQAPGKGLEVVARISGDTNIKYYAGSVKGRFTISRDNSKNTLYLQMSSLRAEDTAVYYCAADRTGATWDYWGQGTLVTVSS

>  <Measurement>
3800

$$$$
>  <Binder>
H2-PC11 humanized antibody (antibody, human IgG1, V domains shown, not shown: constant region of human IgG1) VH: EVQLVESGGGLVQPGGSLRLSCAPSPYSANSFSMAWFRQAPGKGLEGIACIQAESGSTNVAPSVKGRFTISQDNSKNTLYLQMNSLRAEDTAVYYCAAFKRNVGGCELRPEHWRFWGQGTLVTVSS

>  <Measurement>
3540

$$$$
